Please respond with reported residual activity for every item in the list.
# system: Vascular endothelial growth factor receptor 1 (Homo sapiens) (UniProt P17948)
# Sequence (P17948 whole entry): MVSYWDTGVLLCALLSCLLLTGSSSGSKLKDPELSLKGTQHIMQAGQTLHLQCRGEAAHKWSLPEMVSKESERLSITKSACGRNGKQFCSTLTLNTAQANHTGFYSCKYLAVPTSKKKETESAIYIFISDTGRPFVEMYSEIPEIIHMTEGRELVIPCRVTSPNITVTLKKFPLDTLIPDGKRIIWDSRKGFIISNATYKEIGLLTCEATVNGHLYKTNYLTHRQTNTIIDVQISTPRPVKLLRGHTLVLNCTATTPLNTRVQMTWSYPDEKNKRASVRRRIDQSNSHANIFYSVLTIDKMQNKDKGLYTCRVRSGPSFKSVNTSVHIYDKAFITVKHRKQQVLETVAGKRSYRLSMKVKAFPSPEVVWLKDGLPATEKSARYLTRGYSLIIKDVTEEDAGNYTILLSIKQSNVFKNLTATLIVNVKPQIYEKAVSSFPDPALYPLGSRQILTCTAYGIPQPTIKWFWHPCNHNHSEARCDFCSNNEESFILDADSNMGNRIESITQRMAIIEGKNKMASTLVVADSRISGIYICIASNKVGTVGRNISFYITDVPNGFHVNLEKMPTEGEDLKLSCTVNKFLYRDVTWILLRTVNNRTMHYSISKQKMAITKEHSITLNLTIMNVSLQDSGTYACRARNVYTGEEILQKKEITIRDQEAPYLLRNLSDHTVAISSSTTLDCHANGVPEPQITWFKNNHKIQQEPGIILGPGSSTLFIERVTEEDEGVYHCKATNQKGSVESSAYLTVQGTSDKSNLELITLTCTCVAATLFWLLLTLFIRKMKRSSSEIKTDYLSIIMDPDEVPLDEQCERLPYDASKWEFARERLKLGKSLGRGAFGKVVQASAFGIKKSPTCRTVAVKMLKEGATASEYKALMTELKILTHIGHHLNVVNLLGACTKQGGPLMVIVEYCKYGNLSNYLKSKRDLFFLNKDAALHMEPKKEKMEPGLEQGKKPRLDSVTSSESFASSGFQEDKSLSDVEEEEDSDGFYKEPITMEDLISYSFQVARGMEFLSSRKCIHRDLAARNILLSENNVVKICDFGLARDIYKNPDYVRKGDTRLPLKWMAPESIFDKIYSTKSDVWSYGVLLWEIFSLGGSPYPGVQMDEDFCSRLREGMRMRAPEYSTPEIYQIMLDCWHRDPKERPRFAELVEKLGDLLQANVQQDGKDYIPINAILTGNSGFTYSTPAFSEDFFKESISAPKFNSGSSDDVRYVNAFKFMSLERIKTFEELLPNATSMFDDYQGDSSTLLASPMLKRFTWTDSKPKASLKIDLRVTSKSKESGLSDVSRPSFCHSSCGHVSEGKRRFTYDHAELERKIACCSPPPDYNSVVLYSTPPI
# run-parameters: at 10 µM
Give just the numeric value; % need not be written.

In: Please report residual activity with Vascular endothelial growth factor receptor 1 (Homo sapiens) (UniProt P17948) for item `COc1ccc(CNC(=O)Nc2ncc([N+](=O)[O-])s2)cc1` .
Out: 49

In: Please report residual activity with Vascular endothelial growth factor receptor 1 (Homo sapiens) (UniProt P17948) for item `CN(C)S(=O)(=O)c1ccc2c(c1)/C(=C/c1cc3c([nH]1)CCCC3)C(=O)N2` .
Out: 56

In: Please report residual activity with Vascular endothelial growth factor receptor 1 (Homo sapiens) (UniProt P17948) for item `Oc1cccc(-c2nc(N3CCOCC3)c3oc4ncccc4c3n2)c1` .
Out: 80

In: Please report residual activity with Vascular endothelial growth factor receptor 1 (Homo sapiens) (UniProt P17948) for item `CC(C)c1nn(-c2c(Cl)cccc2Cl)c2nc(Cc3ccc(OCCO)cc3)[nH]c(=O)c12` .
Out: 82

In: Please report residual activity with Vascular endothelial growth factor receptor 1 (Homo sapiens) (UniProt P17948) for item `N#C/C(=C1/Nc2ccccc2S1)c1ccnc(NCCc2cccnc2)n1` .
Out: 33

In: Please report residual activity with Vascular endothelial growth factor receptor 1 (Homo sapiens) (UniProt P17948) for item `O=C(c1ccccc1)c1ccc(N2CCOCC2)cc1O` .
Out: 93

In: Please report residual activity with Vascular endothelial growth factor receptor 1 (Homo sapiens) (UniProt P17948) for item `O=c1c(-c2ccc(F)cc2)c(-c2ccncc2)[nH]n1-c1ccc(Cl)cc1` .
Out: 50

In: Please report residual activity with Vascular endothelial growth factor receptor 1 (Homo sapiens) (UniProt P17948) for item `COc1cc2ncnc(Nc3cccc(Cl)c3)c2cc1OC` .
Out: 16

In: Please report residual activity with Vascular endothelial growth factor receptor 1 (Homo sapiens) (UniProt P17948) for item `CCN(CC)CCNC(=O)c1c(C)[nH]c(/C=C2\C(=O)Nc3ccc(Cl)cc32)c1C` .
Out: 0

In: Please report residual activity with Vascular endothelial growth factor receptor 1 (Homo sapiens) (UniProt P17948) for item `O=C(c1cc2cc(O)ccc2[nH]1)c1cc2cc(O)ccc2[nH]1` .
Out: 2
